Every entry's value here was drawn from patent US20220249633A1.

Biological target: HLA-A*24 (human)
Assay: UV-exchange ELISA, exchange yield grade
Quick reference: peptide exchange yield of the listed items.
READOUT: peptide exchange yield

>>> reading("NYEDHFPLL [… (SEQ ID NO: 171)]")
"50 to 75%"
>>> reading("SYVASFFLL [… (SEQ ID NO: 215)]")
"20 to 49%"
>>> reading("VHFEDTGKTLLF [… (SEQ ID NO: 244)]")
"50 to 75%"
>>> reading("AFADVSVKF [… (SEQ ID NO: 231)]")
"> 75%"
